Entries with reported pKi on UniProt P21554
Sequence (P21554 whole entry): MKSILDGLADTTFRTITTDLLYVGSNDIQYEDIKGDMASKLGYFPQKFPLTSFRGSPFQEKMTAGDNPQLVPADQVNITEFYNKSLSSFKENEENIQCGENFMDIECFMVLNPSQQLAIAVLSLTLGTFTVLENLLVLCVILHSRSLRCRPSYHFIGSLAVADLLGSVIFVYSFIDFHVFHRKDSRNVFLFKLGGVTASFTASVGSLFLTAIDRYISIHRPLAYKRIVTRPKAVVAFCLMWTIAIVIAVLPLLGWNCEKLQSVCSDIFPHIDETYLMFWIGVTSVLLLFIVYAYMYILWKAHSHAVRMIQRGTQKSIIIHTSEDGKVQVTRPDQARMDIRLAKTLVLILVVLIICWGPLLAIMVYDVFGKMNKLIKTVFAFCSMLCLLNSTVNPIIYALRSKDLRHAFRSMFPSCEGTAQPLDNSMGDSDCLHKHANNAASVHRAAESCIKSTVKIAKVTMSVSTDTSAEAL
# pKi: negative log10 of molar concentration; output just the value

>  <Smiles Text>
O=C(NCCO)C1CCN(Cc2nc(-c3cn(CC4CCOCC4)c4c(Cl)cccc34)no2)CC1

>  <pKi>
8.40

$$$$

Give reported pKi for `O=C(NCCO)[C@H]1CCCN(Cc2nc(-c3cn(CC4CCS(=O)(=O)CC4)c4c(Cl)cccc34)ns2)C1` (UniProt P21554)
7.50

Write down measured pKi (UniProt P21554) for this molecule. `COc1cccc2c(-c3nsc(CN4CCN(CC(N)=O)CC4)n3)cn(CC3CCOCC3)c12`
8.20

Enter recorded pKi with UniProt P21554 for `NC(=O)CN1CCN(Cc2nc(-c3cn(CC4CCOCC4)c4c(Cl)cccc34)no2)CC1` here.
7.70
